Tested on: NCI-H23
measurementProtocol: NCI tumour cell line growth inhibition, 48 h
Activity calls are given as the source filed them. Cut-off read from the data, not from the text of the source: active = GI50 up to about 1.1 µM and inactive = higher.
experimentalReadout: GI50

Asked: For the compound CCOC(=O)C1=NN(c2ccc(C)cc2)C2(c3ccccc3)C=C(c3ccccc3)N(C)CCN12 (stereo unspecified) , what GI50 is on record?
Given back: > 100 µM (inactive)

Asked: Now the same for CC(C)(C)[Si](C)(C)OCCCC#CCO
Given back: > 100 µM (inactive)

Asked: Now the same for CCOC(=O)Nc1nc(-c2ccccc2)c(C)s1
Given back: 81.1 µM (inactive)

Asked: Now the same for NC(=O)C1C(=O)Oc2cccnc21 (stereo unspecified)
Given back: > 100 µM (inactive)

Asked: Now the same for N#C/C(C(=O)NCc1ccccc1)=C(/N)N1CCCC1
Given back: > 100 µM (inactive)

Asked: Now the same for Clc1ccc(CSCCc2ccncc2)cc1Cl
Given back: 22 µM (inactive)

Asked: Now the same for Cc1cc(Cl)ccc1C(=O)c1ccc2ccccc2c1C(=O)O
Given back: > 100 µM (inactive)

Asked: Now the same for CN(C)c1ccc(C(Cc2ccccc2)C2NC(=S)NC2=O)cc1 (stereo unspecified)
Given back: > 100 µM (inactive)

Asked: Now the same for CCCOC(=O)C1CCC(=O)N1C(=O)C(Cl)Cl (stereo unspecified)
Given back: > 100 µM (inactive)

Asked: Now the same for CN(C)CC(C)(C)C(=O)/C=C/c1ccc(/C=C/C(=O)C(C)(C)CN(C)C)cc1
Given back: 1.91 µM (inactive)

Asked: Now the same for Cc1ccccc1SC(/C=C/NNC1=NN=C(c2ccccc2)C(c2ccccc2)N1)c1ccccc1 (stereo unspecified)
Given back: 17.5 µM (inactive)
